Tested on: CFA-induced paw radiant heat hypersensitivity
Test summary: CFA-induced paw radiant heat hypersensitivity
Format: in vivo, rat
Condition info: Rattus norvegicus, po; 30 mg/kg p.o., HPβCD, group mean values, last time point 180 or 300 min; read-out: CFA thermal hypersensitivity Method 1: peak % reversal
Label scheme for inhibition in vivo at 30 mg/kg: lower than 30% is no (0), 30% and above is yes (1).

Answer whether inhibition in vivo at 30 mg/kg of O=C(c1cscn1)N1CCN(C2CN(C(=O)c3sc4cc(-c5ccccc5)ccc4c3Cl)C2)CC1 is greater than or equal to 30%.
no (0)

Answer whether inhibition in vivo at 30 mg/kg of O=C(c1ccccc1)N1CCN(C2CN(C(=O)c3ccc4c(-c5cccc(C(F)(F)F)c5)c[nH]c4c3)C2)CC1 is greater than or equal to 30%.
no (0)

Answer whether inhibition in vivo at 30 mg/kg of O=C(c1ccc(OCc2ccccn2)c(Cl)c1)N1CC(N2CCN(C(=O)c3nccs3)CC2)C1 is greater than or equal to 30%.
no (0)

Answer whether inhibition in vivo at 30 mg/kg of O=C(c1ccc(Oc2ncc(C(F)(F)F)cc2Cl)cc1)N1CC(N2CCN(C(=O)c3nccs3)CC2)C1 is greater than or equal to 30%.
yes (1)

---

System under test: MGL (Rattus norvegicus, UniProt Q8R431)
Construct: one g rat brain was homogenized using a Polytron homogenizer; from tissue; host or cells: rat brain homogenate
Sequence (Q8R431 whole entry): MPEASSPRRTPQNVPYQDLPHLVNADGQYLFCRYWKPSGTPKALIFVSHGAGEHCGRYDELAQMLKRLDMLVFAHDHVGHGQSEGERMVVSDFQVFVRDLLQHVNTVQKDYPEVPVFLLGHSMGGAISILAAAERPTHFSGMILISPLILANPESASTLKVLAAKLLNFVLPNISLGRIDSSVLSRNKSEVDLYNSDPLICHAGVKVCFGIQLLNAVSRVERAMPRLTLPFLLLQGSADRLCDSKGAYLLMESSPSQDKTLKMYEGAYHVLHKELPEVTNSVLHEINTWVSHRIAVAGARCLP
Test summary: 2-AG accumulation assay in rat brain homogenate
Type: biochemical
Condition info: rat brain homogenate; compound 1 μM; 2-AG accumulation as percent of vehicle; read-out: Rat Brain 2AG % VehCntrl (%) @ 1 μM
Listing of recorded 2-AG accumulation, % of vehicle control at 1 µM by entry.
Provide the reading as a plain figure in %.

Requested read-out: 2-AG accumulation, % of vehicle control at 1 µM. Entry: O=C(c1ccccc1)N1CCN(C2CN(C(=O)c3ccc4c(ccn4-c4ccc(OC(F)(F)F)cc4)c3)C2)CC1
277

Requested read-out: 2-AG accumulation, % of vehicle control at 1 µM. Entry: O=C(c1ccccc1)N1CCN(C2CN(C(=O)c3ccc(NCc4ccccc4)c(I)c3)C2)CC1
366

Requested read-out: 2-AG accumulation, % of vehicle control at 1 µM. Entry: O=C(c1ccc2c(ccn2-c2ccc(F)cc2F)c1)N1CC(N2CCN(C(=O)c3cscn3)CC2)C1
654

Requested read-out: 2-AG accumulation, % of vehicle control at 1 µM. Entry: O=C(c1ccc(-c2ccccc2)cc1)N1CC(N2CCN(C(=O)c3cscn3)CC2)C1
238

Requested read-out: 2-AG accumulation, % of vehicle control at 1 µM. Entry: Cc1c(C(=O)N2CC(N3CCN(C(=O)c4nccs4)CC3)C2)sc2cc(F)ccc12
645

Requested read-out: 2-AG accumulation, % of vehicle control at 1 µM. Entry: O=C(c1ccc(F)cc1)c1c[nH]c2cc(C(=O)N3CC(N4CCN(C(=O)c5nccs5)CC4)C3)ccc12
851

Requested read-out: 2-AG accumulation, % of vehicle control at 1 µM. Entry: COc1cc(C(=O)N2CC(N3CCN(C(=O)c4cscn4)CC3)C2)ccc1-c1ccc(Cl)c(C(F)(F)F)c1
386

Requested read-out: 2-AG accumulation, % of vehicle control at 1 µM. Entry: O=C(c1ccc(OC(F)(F)F)c(Cl)c1)N1CC(N2CCN(C(=O)c3nccs3)CC2)C1
299

---

System under test: purified wild type MGL (wt-MGLL 6H-11-313) (Homo sapiens)
Listing of recorded IC50 by entry.
Provide the reading as a plain figure in nM.

Compound: O=C(c1ccc(-c2cccc(C(F)(F)F)c2)c(Cl)c1)N1CC(N2CCN(C(=O)c3cscn3)CC2)C1 [Cpd 1102]
System under test: purified wild type MGL (wt-MGLL 6H-11-313) (Homo sapiens)
IC50, nM: 13
//
Compound: O=C(c1cscn1)N1CCN(C2CN(C(=O)c3sc4cc(-c5ccccc5)ccc4c3C(F)(F)F)C2)CC1 [Cpd 1098]
System under test: purified wild type MGL (wt-MGLL 6H-11-313) (Homo sapiens)
IC50, nM: 12
//
Compound: O=C(c1cc2nc(C(F)(F)F)ccc2[nH]1)N1CC(N2CCN(C(=O)c3nccs3)CC2)C1 [Cpd 863]
System under test: purified wild type MGL (wt-MGLL 6H-11-313) (Homo sapiens)
IC50, nM: 10200
//
Compound: O=C(c1ccc2c(ccn2CC(F)F)c1)N1CC(N2CCN(C(=O)c3nccs3)CC2)C1 [Cpd 711]
System under test: purified wild type MGL (wt-MGLL 6H-11-313) (Homo sapiens)
IC50, nM: 127
//
Compound: O=C(c1nccs1)N1CCN(C2CN(C(=O)c3cccc4oc(-c5cccc(Cl)c5)nc34)C2)CC1 [Cpd 1191]
System under test: purified wild type MGL (wt-MGLL 6H-11-313) (Homo sapiens)
IC50, nM: 105
//
Compound: CC1CN(C(=O)c2nccs2)CCN1C1CN(C(=O)c2ccc(Cc3ccccc3)cc2)C1 (stereo not shown) [Cpd 47]
System under test: purified wild type MGL (wt-MGLL 6H-11-313) (Homo sapiens)
IC50, nM: 129
//
Compound: O=C(c1ccc(-c2cccc(C(F)(F)F)c2)cc1)N1CCN(C2CN(C(=O)c3ccc[nH]3)C2)CC1 [Cpd 1166]
System under test: purified wild type MGL (wt-MGLL 6H-11-313) (Homo sapiens)
IC50, nM: 52
//
Compound: O=C(c1nccs1)N1CCN(C2CN(C(=O)C3CCC(c4ccc(Cl)cc4)CC3)C2)CC1 (stereo not shown) [Cpd 637]
System under test: purified wild type MGL (wt-MGLL 6H-11-313) (Homo sapiens)
IC50, nM: 41

// lookup IC50 | system=purified wild type MGL (wt-MGLL 6H-11-313) (Homo sapiens) | key= COc1c(C(=O)N2CC(N3CCN(C(=O)c4nccs4)CC3)C2)sc2cc(C(F)(F)F)ccc12 [Cpd 649]
6

// lookup IC50 | system=purified wild type MGL (wt-MGLL 6H-11-313) (Homo sapiens) | key= Cn1cc(-c2ccccc2)c2ccc(C(=O)N3CC(N4CCN(C(=O)c5cscn5)CC4)C3)cc21 [Cpd 1155]
41

---

System under test: mutant MGL (Homo sapiens, UniProt Q99685, L169S/L176S)
Test summary: MGL ThermoFluor assay - mutant
Format: binding
Condition info: ThermoFluor concentration-response, read-out: MGL mutant ThermoFluor Kd
pKd: −log10 of the molar value.
Label scheme for pKd: lower than 7 is No, 7 and above is Yes.

Recorded results for 5 compounds are shown here.
Compound string: O=C(c1nccs1)N1CCN(C2CN(C(=O)c3sc4cc(F)ccc4c3C3CC3)C2)CC1
Assigned class: Yes

Compound string: O=C(c1ccc2[nH]c(C3CCCCC3)nc2c1)N1CCN(C2CN(C(=O)c3cscn3)C2)CC1
Assigned class: No

Compound string: O=C(c1ccc(-c2nc(-c3ccccc3)c(-c3ccccc3)[nH]2)cc1)N1CC(N2CCN(C(=O)c3nccs3)CC2)C1
Assigned class: Yes

Compound string: Cc1c(C(=O)N2CC(N3CCN(C(=O)c4nccs4)CC3)C2)sc2ccc(-c3ccccc3)cc12
Assigned class: Yes

Compound string: O=C(c1ccccc1)N1CCN(C2CN(C(=O)c3cccn(Cc4cccc(Cl)c4)c3=O)C2)CC1
Assigned class: No

We next turn to a different compound, shown below.
Answer whether pKd of O=C(c1ccccc1)N1CCN(C2CN(C(=O)c3sc4cc(F)ccc4c3C3CC3)C2)CC1 is greater than or equal to 7.
Yes

---

System under test: purified wild type MGL (wt-MGLL 6H-11-313) (Homo sapiens)
Quantity kind: IC50

Molecule: O=C(c1ccccc1)N1CCN(C2CN(C(=O)c3cc4cccc(C(F)(F)F)c4s3)C2)CC1 [Cpd 329]
Quantity kind: IC50
Observed measurement: 1220 nM

// lookup IC50 | system=purified wild type MGL (wt-MGLL 6H-11-313) (Homo sapiens) | key= O=C(c1nccs1)N1CCN(C2CN(C(=O)c3sc4ccc(Cl)cc4c3C(F)(F)F)C2)CC1 [Cpd 896]
< 5 nM

// lookup IC50 | system=purified wild type MGL (wt-MGLL 6H-11-313) (Homo sapiens) | key= Cc1ccc2sc(C(=O)N3CC(N4CCN(C(=O)c5cscn5)CC4)C3)c(C(F)(F)F)c2c1 [Cpd 737]
285 nM

---

System under test: purified wild type MGL (wt-MGLL 6H-11-313) (Homo sapiens, UniProt Q99685)
Sequence (Q99685 1-303): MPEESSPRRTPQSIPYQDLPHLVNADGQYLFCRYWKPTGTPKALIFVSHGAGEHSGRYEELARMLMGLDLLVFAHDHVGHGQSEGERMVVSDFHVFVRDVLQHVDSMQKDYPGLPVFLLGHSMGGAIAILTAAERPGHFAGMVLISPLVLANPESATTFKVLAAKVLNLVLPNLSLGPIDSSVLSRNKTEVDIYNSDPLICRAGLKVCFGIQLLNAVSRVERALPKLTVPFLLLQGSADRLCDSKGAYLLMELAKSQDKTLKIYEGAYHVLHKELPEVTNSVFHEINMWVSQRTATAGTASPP
Sorting guide: entries reporting IC50 beneath 90 nM go in the 1 (yes) pile, the rest go in the 0 (no) pile.

Recorded results for 3 compounds are shown here.
Compound: Cc1cc(-c2ccc(Cl)c(C(F)(F)F)c2)ccc1C(=O)N1CC(N2CCN(C(=O)c3cscn3)CC2)C1
Assigned class: 1 (yes)
--
Compound: O=C(c1ccccc1)N1CCN(C2CN(C(=O)c3ccc4c(-c5ccc(C(F)(F)F)cc5)ncnc4c3)C2)CC1
Assigned class: 0 (no)
--
Compound: O=C(c1cscn1)N1CCN(C2CN(C(=O)c3sc4cc(C(F)(F)F)ccc4c3Cl)C2)C(C(F)(F)F)C1 (stereo not shown)
Assigned class: 0 (no)

State whether 90 nM exceeds IC50 recorded for O=C(c1ccc2nc(-c3ccccn3)sc2c1)N1CC(N2CCN(C(=O)c3nccs3)CC2)C1 .
1 (yes)

State whether 90 nM exceeds IC50 recorded for Cn1ccc2cc(C(=O)N3CC(N4CCN(C(=O)c5nccs5)CC4)C3)cc(-c3cccc(F)c3)c21 .
1 (yes)

State whether 90 nM exceeds IC50 recorded for O=C(c1ccc(F)c(Cc2ccc(C(F)(F)F)cc2)c1)N1CC(N2CCN(C(=O)c3nccs3)CC2)C1 .
1 (yes)

State whether 90 nM exceeds IC50 recorded for Cc1c(C(=O)N2CC(N3CCN(C(=O)c4nccs4)CC3)C2)[nH]c2ccc(-c3ccc(F)cc3)cc12 .
1 (yes)

State whether 90 nM exceeds IC50 recorded for Cc1cc(-c2cccc(C(F)(F)F)c2)ccc1C(=O)N1CC(N2CCN(C(=O)c3cscn3)CC2)C1 .
1 (yes)

State whether 90 nM exceeds IC50 recorded for O=C(c1ccc2c(c1)[nH]c(=O)n2-c1ccc(F)cc1)N1CC(N2CCN(C(=O)c3cscn3)CC2)C1 .
0 (no)

State whether 90 nM exceeds IC50 recorded for C[C@@H]1CN(C2CN(C(=O)c3cc4ccc(C(F)(F)F)cc4s3)C2)C[C@H](C)N1C(=O)c1nccs1 .
0 (no)

State whether 90 nM exceeds IC50 recorded for N#Cc1cc(-n2ccc3cc(C(=O)N4CC(N5CCN(C(=O)c6nccs6)CC5)C4)ccc32)ccc1F .
1 (yes)

State whether 90 nM exceeds IC50 recorded for Cn1cc(-c2ccc(F)cc2)c2ccc(C(=O)N3CC(N4CCN(C(=O)c5nccs5)CC4)C3)cc21 .
1 (yes)
